All figures here come from BindingDB's records for PubMed 8102785.

Where a SMILES comes first, the peptide text is derived from it. Bridges are numbered along the chain shown (N, C = ends). [ ]: non-standard residue; d: D form. Phe(4-NO2) = N[C@@H](Cc1ccc([N+](=O)[O-])cc1)C(=O)O; Phe(4-Cl) = N[C@@H](Cc1ccc(Cl)cc1)C(=O)O; 1Nal = N[CH](Cc1cccc2ccccc12)C(=O)O; Thr(ol) = C[CH](O)[CH](N)CO; NMeA = CN[C@@H](C)C(=O)O; Abu = CC[C@H](N)C(=O)O; Ahp = NCCCCCCC(=O)O
Here's a batch of compounds along with measured pKi for Somatostatin receptor type 4 (Rattus norvegicus).
Field pKi (float): negative decimal logarithm of the concentration in molar.

Recorded results for 3 compounds are shown here.
Compound	pKi
CC(C)C1NC(=O)C(CCCCN)NC(=O)C(Cc2c[nH]c3ccccc23)NC(=O)C(Cc2ccc(O)cc2)NC(=O)C(NC(=O)C(N)Cc2cccc3ccccc23)CSSCC(C(=O)NC(CO)C(C)O)NC1=O (centres undefined) [DC23-60] (H-[1Nal]CYWKVC[Thr(ol)]; disulfide 2-7; configuration not given here)	8.82
CC[C@@H]1NC(=O)[C@H](CCCCN)NC(=O)[C@@H](Cc2c[nH]c3ccccc23)NC(=O)[C@H](Cc2ccc(O)cc2)NC(=O)[C@H](C)N(C)C(=O)[C@H](Cc2ccccc2)NC1=O [BIM-23027] (cyclo([Abu]F[NMeA]Y[dW]K))	8.21
CC(C)[C@H](NC(=O)[C@H](CCCCN)NC(=O)[C@@H](Cc1c[nH]c2ccccc12)NC(=O)[C@H](Cc1ccc(O)cc1)NC(=O)[C@H](Cc1ccc([N+](=O)[O-])cc1)NC(=O)[C@H](N)Cc1ccccc1)C(=O)N[C@@H](Cc1ccccc1)C(=O)N[C@H](C(N)=O)[C@@H](C)O [BIM 23066] (H-[dF][Phe(4-NO2)]Y[dW]KVFT-NH2)	8.62

Query compound follows.
Q: Value lookup for pKi; key = C[C@@H](O)[C@@H]1NC(=O)[C@H](CCCCN)NC(=O)[C@@H](Cc2c[nH]c3ccccc23)NC(=O)[C@H](Cc2ccccc2)NC(=O)[C@H](Cc2ccc(Cl)cc2)NC(=O)CCCCCCNC(=O)[C@H](Cc2ccccc2)NC1=O [L-362862] (cyclo([Ahp][Phe(4-Cl)]F[dW]KTF))
A: 9.33
